assay: soluble on expression in E. coli; label from the status in PepcDB or PDB records
endpoint-name: soluble on expression in E. coli

1. VVTRQLGRAPRGVLAIAYRCPNGEPGVVKTAPRLPDGTPFPTLYYLTHPVLTAAASRLETTGLMREMNRRLGQDAELAAAYRRAHESYLSERDALEPLGTTVSAGGMPDRVKCLHVLIAHSLAKGPGLNPFGDEALALLAAEPRTAATLVAGQWR
soluble
2. MKKGSRHNFVVSQENWTLHRKGYQDQRRHQEKVKEAIRKNLPDLVSEENIIMSNGREVIKIPIRSLDEYKIRYNYDKNKHVGQGDGDSQVGDVIARDPSAGQQGPGKGQGAGDQPGEDYFEAEVSILELEELLFRELELPNLQQKEEDHLVVEHIEFNDIRKKGLMGNIDKRRTILSAIKRNALEGRPGLIPIYNDDLRFKTWNEVVRPESKAVVLAMMDTSGSMGRWEKYMARSFFFWMTRFLRTKYETVDIEFIAHHTEAKVVSEEDFFSKGESGGTICSSAYRKALELINEKYDPARYNIYPFHFSDGDNLTSDNARCLKLVHELMESSSMFGYGEVNQYSRHSTLMNAYKNLKDPRFRSYVLKEKGDVYRAMKTFFKKEEEAVSAAALEHHHHHH
soluble
3. IVKASTYMGKRRIGALISMERETGMTDYVETGIPMNANLTSELLINTFIPNTPLHDGAVIINNDTILAAACYLPLSENPFISKELGTRHRAALGVSEVTDCLTIVVSEETGHISLTKNGE
soluble
